- EXPERIMENT_DESCRIPTION: yeast display, Sf9 membrane polyspecificity reagent, FACS + sequencing; frameworks hold sequencing errors
MEASURED_PROPERTY: polyreactivity (PSR sort gate)

Please review the following examples before continuing.
| SEQUENCE_INPUT | polyreactivity (PSR sort gate) |
| --- | --- |
| QVQLVESGGGLVQAGGSLRLSSDASGNTFVYNAMGWYRQAPGKERKLVAGITKTGGRTYYADSVKGRFTISRDNAKNTVYLQMNSLKPDDTAVYYCAARPWNDGYYVGRFHMDYWGQGTQVTLSS | low polyreactivity |
| QVQLVESGGGLVQAGGSLRLSCAASGRSFWRNAMGWYRQAPGRERELVAAMSRGGSTNYADSVKGRFTMSRDNAKKTVYLPMNSLKPEDTAVYYCAARYYYRYNYWRQGTQVTVSS | high polyreactivity |
| QVQLVESGGGLVQAGGSLRLSCAASGYTCDANAMGWYRQATGKERELVASISSISDSTDYADAVKGRITISRDNATNTVYLQMKILKPEDTAVYYCARSDVKPGRQERDYWGQGTQVTVSS | low polyreactivity |
| QFQLVESGGGLVQAGGSLRLSCAASGRIFSLNAMGWYRQAPGKESELVAAITSTGGTTYYADSVKGRFTISRDNAKNTVYLQMNSLKPEDTAVYYCAADYYSYAWHGWYYSDHYDYWGQGTQVTVSS | low polyreactivity |

Please turn your attention to the following entry.
Which polyreactivity (PSR sort gate) value is on record for QVQLVESGGGLVQAGGSLRLSCAASGSTFYRYAMGCYRQAPGKERELVAAISSRGGSTYYADSVKGRFTISRDNAKNTVYLQMNSLKPEDTAVYYCAAQVYGTAGYYYWGQGTQVTVSS ?
high polyreactivity

----------
- EXPERIMENT_DESCRIPTION: yeast display, Sf9 membrane polyspecificity reagent, FACS + sequencing; frameworks hold sequencing errors
MEASURED_PROPERTY: polyreactivity (PSR sort gate)

Some solved entries appear below for comparison.
| SEQUENCE_INPUT | polyreactivity (PSR sort gate) |
| --- | --- |
| QVQLVESGGGLVQAGGSLRLSCAASGFIFRGYAMGWYRQAPGKERELVAAINSGGSTNYADSVKGRFTISRDNAKNTVYLQMNSLKPEDTAVYYCAARVKTSYRYLRTYNYWGQGTQVTVSS | high polyreactivity |
| QVQLVESGGGLVQAGGSLRLSCAASGSIFRGNVMGWYRQAPGKERELVAAISWSGGSTYYADSVKGRFTISRDNAKNTVYLQMNSLKPEDTAVYYCAVRVWGSARGMDYWGQGTQVTVSS | high polyreactivity |
| QVQLVESGGGLVQAGGSLRLSCAASGFIFIVYAMGWYRQAPGKERELVASITYSGGGTYYADSVKGRFTISRDNAKNTVYLQKNSLKPEDTAVYYCNADVSWSYSVYREYGMDYWGQGTQVTVSS | low polyreactivity |
| QVQLVESGGGLVQAGGSLRLSCAASGRIFNGYAMGWYRQAPGKERELVAAINSSGGSTYYADSVKGRFTISRDNAKNTVFLQMNSLKPEDTAVYYCARVSYHYRTYDYWGQGTQVTVSS | high polyreactivity |
| QVQLVDSGGGLVQAGGSLRLSCAASGRTFGRKAMGWYRQAPGERELVAVISRGGSTYYADSVKGRFTISRDNAKNTVYLQMNSLKPEDTAVYYCNADTVYTRTAPYDYCGQGTQVTVSS | low polyreactivity |
| QVQLVESGGGLVQAGGSLRLSCAASGSIFVVNAMGWYRQAPGKERELVAGISFRGGTTYYADSVKGRFTISRDNAMNTVYLQMNSLKPEDTAVYYCNAVYTSNRNEYDYWGQGTQVTVSS | low polyreactivity |

Please state, for each entry, its recorded polyreactivity (PSR sort gate).
1. QVQLVESGGGLVQAGGSLRLSCAASGLTFYGYAMGWYRQAPGKERELVAAIRWSGGRTYYADSVKGRFTISRDNAKNTVYLQMNSLKPEDTAVYYCAADYRRYYGGDYWGQGTQVTVSS
2. QVQLVESGGGLVQAGGSLRLSCAASGRTFNLYAMGWSRQAPGKERELVARITSGGSTNYADSEKGRFTISRDNAKNTVYLQMNSLKPEDTAVYYCAASSYNRGDYWGQGTQVTVSS
3. QFQLVESGGGLVQAGGSLRLSCAAYGSIFMYYAMGWYIQAPGKERELVAAIRRGGNTNYADSVKGRFTISRDNAKNTVYLQMNSLKPEDTAVYYCAAAQYSRYSRVPNYYAGTYYYWGQGTQVTVSS
4. QVQLVESGGGLVQAGGSLRLSCAASGRTYVRNAMGWYRQAPGKERELVAGITRSGGSTYYADSVKGRFTISRDNAKNTVYLQMNSLKPEDTAVYYCAKRYDVYVGTVRPYDYWGQGTQVTVSS
5. QVQLVESGGGLDQAVGSLPLSCAASGRTFYLNTRGWYREAPWKEREFVAAISATAGRTYYADSVKGRFTISRDNAKNTVYLQMYSLKPEDTAVYYCAAVPLRIRWPNSSPALDYWGQGTQVTVSS
6. QVQLVESGGGLVQAGGSLRLSCSASGSTFFWNAMGWYRQAPGKESEFVAAISSSSGSTYYADSVKGRFTISRDNAKNTVYLQMNSLKPEDTAVYYCAARPWGNVFDSAVSYDYWGQGTQVTVSS

["low polyreactivity", "high polyreactivity", "low polyreactivity", "low polyreactivity", "high polyreactivity", "low polyreactivity"]

----------
- EXPERIMENT_DESCRIPTION: yeast display, Sf9 membrane polyspecificity reagent, FACS + sequencing; frameworks hold sequencing errors
MEASURED_PROPERTY: polyreactivity (PSR sort gate)

Some sequences with known polyreactivity (PSR sort gate) results, for comparison:
| SEQUENCE_INPUT | RESULT |
| --- | --- |
| QVQLVESGGGLVQAGGSLRLSCAASGSTFYTNAMGWYRQAPGQERELVAAISASVGSTYYADSVKGRFTISRDYAKNSVYLQMNSLKPEDTAVYYCAADVWASRRYDYWGQGTQVTVSS | low polyreactivity |
| QVQLVESGGGLVQAGGSLRLSCAASGRTFYSYVMGWYRQAPGKEREFVADISQSGGRTYYADSVKGRFTISRDNAKNTVYLQMNSLKPEDTAVYYCAAAKRGSYARGYYWGQGTQVTVSS | low polyreactivity |
| QDQLVESGGGLVQAGGSLRLSCAASGYIFLRNAMGWYRQAPGKERELVATISRTGRTNYADSVKGRFTISRDNAKNTVFLHMNSLKPEDTAVYYCAAASVFGRIRLWYDYWGQGTQVTVSS | high polyreactivity |
| QDQLVESVGCLVQAGGSLRLSCAASGLTIQRNDMGWYRQAPGKEREFVATITSNAGSTYYADSVKGRFTISRDNAKNTVYLQKNSLKPEDTAVYYCARERWWGGSDYWGQGTQVTVSS | high polyreactivity |

Give its polyreactivity (PSR sort gate) value. Item: QVQLVESGGGLVQAGGSLRLRCAASGNIFYGNAMGWYRQAPGKERELVAGITSGGSTNYADSVKGRFTISRDNAKNTVYLQMNSLKPEDTAVYYCNATSSGSIFGYDYWGQGTQVTVSS
low polyreactivity

----------
- EXPERIMENT_DESCRIPTION: yeast display, Sf9 membrane polyspecificity reagent, FACS + sequencing; frameworks hold sequencing errors
MEASURED_PROPERTY: polyreactivity (PSR sort gate)

// worked examples, polyreactivity (PSR sort gate) included
| SEQUENCE_INPUT | RESULT |
| --- | --- |
| QVQLVESGGGLVQAGGSLRLSCAASGSTLLWNTMGWYRQAPGKERELVAAISITGSTNYADSVKGRFTISRDNEKNTVYLQMNSLKPEDTAVYYCAAPYGLPWWYGSWGQGTQVTVSS | low polyreactivity |
| QVQLVESGGGLVQAGGSLRLSCAASGSTFRVYAMGWYRQATVKERELVAAISGSGGSTYYADSVKGRFTISRYNAKNSVYLQMNSLKPEDTAVYYCAARSWYTEYYWGQGTQVSVSS | high polyreactivity |
| QVQLVESGGGLVQAGGSLRLSCAASGSIFPYYAMGWYRQAPGKERELVAAISSGGSTNYADSVKGRFTISRDNAKNTVYLQMNSLKPEDTAEYYCAARWSRIFRDRVKYWYDYWGQGTQVTVSS | low polyreactivity |
| QVQLVESGGGLVQAGGSLRLSCAASGRTQRYYAMGWYRQAPRKERELVAAITKSGGSTYYADSVKGRITISRDNAKNTVYLQMYSLKPEDTAVYYFNKVTYSRAQYIGGDGYYWGQGTQVTVSS | high polyreactivity |

Pending sequence:
For the sequence QDKLVESGGGLVQAGGSLRLSCAPSGSIFYGYAMGWYRQAPGKESELVAAMSSTGGTTYYADSVKGRFTISRDNAKNTVYLQMNSQKPEDTAVYYCAKRGRTWRYPFDYWGQGTQVTVSS , what polyreactivity (PSR sort gate) is on record?
high polyreactivity

src = the nanobody polyreactivity screen of Harvey et al. (2022)
